- Test system: 22Rv1 tumor-bearing mice
- MEASUREMENT_NOTES: Biodistribution in 22Rv1 tumor-bearing mice
- EXPERIMENTAL_CONDITIONS: 60 min p.i., 0.74 MBq, n = 3
PARAMETER: Uptake Bone, Mean (ID%/g)

* O=C([O-])CN1CCN(CC(=O)[O-])CCN(CC(=O)NCC2CCC(C(=O)NC(Cc3cnc4ccccc4c3)C(=O)NCCCCC(NC(=O)NC(CCC(=O)O)C(=O)O)C(=O)O)CC2)CCN(CC(=O)O)CC1.[68Ga+3] (centres unmarked) [[^68Ga]Ga-PSMA-Q] | 0.21
* O=C([O-])CN1CCN(CC(=O)[O-])CCN(CC(=O)NCCCCCC(=O)NC(Cc2cnc3ccccc3c2)C(=O)NCCCCC(NC(=O)NC(CCC(=O)O)C(=O)O)C(=O)O)CCN(CC(=O)O)CC1.[68Ga+3] (centres unmarked) [[^68Ga]Ga-PSMA-Q-2] | 0.53

* * *

- MEASUREMENT_NOTES: Partition coefficient, octanol–water system
- Format: physicochemical
- EXPERIMENTAL_CONDITIONS: octanol–water (v/v = 1:1), n = 3
Below, each entry is listed alongside its reported Log p pH = 7.4.
PARAMETER: Log p pH = 7.4

• O=C([O-])CN1CCN(CC(=O)[O-])CCN(CC(=O)NCC2CCC(C(=O)NC(Cc3cnc4ccccc4c3)C(=O)NCCCCC(NC(=O)NC(CCC(=O)O)C(=O)O)C(=O)O)CC2)CCN(CC(=O)O)CC1.[68Ga+3] (centres unmarked) [[^68Ga]Ga-PSMA-Q] = −3.24
• O=C([O-])CN1CCN(CC(=O)[O-])CCN(CC(=O)NCCCCC(=O)NC(Cc2cnc3ccccc3c2)C(=O)NCCCCC(NC(=O)NC(CCC(=O)O)C(=O)O)C(=O)O)CCN(CC(=O)O)CC1.[68Ga+3] (centres unmarked) [[^68Ga]Ga-PSMA-Q-1] = −3.09

* * *

Below, each entry is listed alongside its reported Uptake Muscle, Mean.
- System: 22Rv1 tumor-bearing mice
- MEASUREMENT_NOTES: Biodistribution in 22Rv1 tumor-bearing mice
- EXPERIMENTAL_CONDITIONS: 60 min p.i., 0.74 MBq, n = 3
- Description: The animal studies were approved by the institutional animal care and use committee of the Chinese PLA General Hospital. Healthy male ICR mice were injected with either a novel radiotracer (37 MBq in 150 μL) or saline (150 μL) for the radiotoxicity evaluation. […] […] (10 min, 30 min, 60 min), tumors and interested organs were harvested, weighed and measured by a γ-counter, the results were expressed as the percentage of injected dose per gram (ID%/g). […]
PARAMETER: Uptake Muscle, Mean (ID%/g)

• O=C([O-])CN1CCN(CC(=O)[O-])CCN(CC(=O)NCCCCCC(=O)NC(Cc2cnc3ccccc3c2)C(=O)NCCCCC(NC(=O)NC(CCC(=O)O)C(=O)O)C(=O)O)CCN(CC(=O)O)CC1.[68Ga+3] (stereo not shown) [[^68Ga]Ga-PSMA-Q-2] = 0.16
• O=C([O-])CN(CCN(CC(=O)[O-])Cc1cc(CCC(=O)NCCCCCC(=O)NCCCC[C@H](NC(=O)N[C@@H](CCC(=O)O)C(=O)O)C(=O)O)ccc1[O-])Cc1cc(CCC(=O)O)ccc1[O-].[68Ga+3].[OH3+] [[^68Ga]Ga-PSMA-11, reference compound] = 0.14
• O=C([O-])CN1CCN(CC(=O)[O-])CCN(CC(=O)NCC2CCC(C(=O)NC(Cc3ccncc3)C(=O)NCCCCC(NC(=O)NC(CCC(=O)O)C(=O)O)C(=O)O)CC2)CCN(CC(=O)O)CC1.[68Ga+3] (stereo not shown) [[^68Ga]Ga-PSMA-4PY] = 0.14
• O=C([O-])CN1CCN(CC(=O)[O-])CCN(CC(=O)NCC2CCC(C(=O)NC(Cc3cnc4ccccc4c3)C(=O)NCCCCC(NC(=O)NC(CCC(=O)O)C(=O)O)C(=O)O)CC2)CCN(CC(=O)O)CC1.[68Ga+3] (stereo not shown) [[^68Ga]Ga-PSMA-Q] = 0.13

* * *

- Tested on: 22Rv1 tumor-bearing mice
- MEASUREMENT_NOTES: Biodistribution in 22Rv1 tumor-bearing mice
- EXPERIMENTAL_CONDITIONS: 10 min p.i., 0.74 MBq, n = 3
Below, each entry is listed alongside its reported Uptake Kidney, Mean.
PARAMETER: Uptake Kidney, Mean

• O=C([O-])CN1CCN(CC(=O)[O-])CCN(CC(=O)NCC2CCC(C(=O)NC(Cc3ccc4ccccc4c3)C(=O)NCCCCC(NC(=O)NC(CCC(=O)O)C(=O)O)C(=O)O)CC2)CCN(CC(=O)O)CC1.[68Ga+3] (stereo not shown) [[^68Ga]Ga-PSMA-617, reference compound] = 16.30 ID%/g
• O=C([O-])CN1CCN(CC(=O)[O-])CCN(CC(=O)NCC2CCC(C(=O)NC(Cc3cnc4ccccc4c3)C(=O)NCCCCC(NC(=O)NC(CCC(=O)O)C(=O)O)C(=O)O)CC2)CCN(CC(=O)O)CC1.[68Ga+3] (stereo not shown) [[^68Ga]Ga-PSMA-Q] = 8.79 ID%/g
• O=C([O-])CN1CCN(CC(=O)[O-])CCN(CC(=O)NCC2CCC(C(=O)NC(Cc3ccncc3)C(=O)NCCCCC(NC(=O)NC(CCC(=O)O)C(=O)O)C(=O)O)CC2)CCN(CC(=O)O)CC1.[68Ga+3] (stereo not shown) [[^68Ga]Ga-PSMA-4PY] = 2.15 ID%/g
• O=C([O-])CN1CCN(CC(=O)[O-])CCN(CC(=O)NCCCCCC(=O)NC(Cc2cnc3ccccc3c2)C(=O)NCCCCC(NC(=O)NC(CCC(=O)O)C(=O)O)C(=O)O)CCN(CC(=O)O)CC1.[68Ga+3] (stereo not shown) [[^68Ga]Ga-PSMA-Q-2] = 13.88 ID%/g

* * *

- Tested on: 22Rv1 tumors
- MEASUREMENT_NOTES: Micro-PET imaging in 22Rv1 tumor-bearing mice
- Assay type: in vivo
- EXPERIMENTAL_CONDITIONS: 22Rv1 tumor, 60 min p.i., 7.4 MBq
PARAMETER: SUVmax of tumor

* O=C([O-])CN1CCN(CC(=O)[O-])CCN(CC(=O)NCc2ccc(C(=O)NC(Cc3cnc4ccccc4c3)C(=O)NCCCCC(NC(=O)NC(CCC(=O)O)C(=O)O)C(=O)O)cc2)CCN(CC(=O)O)CC1.[68Ga+3] (centres unmarked) [[^68Ga]Ga-PSMA-Q-3] | 0.88 ± 0.18
* O=C([O-])CN(CCN(CC(=O)[O-])Cc1cc(CCC(=O)NCCCCCC(=O)NCCCC[C@H](NC(=O)N[C@@H](CCC(=O)O)C(=O)O)C(=O)O)ccc1[O-])Cc1cc(CCC(=O)O)ccc1[O-].[68Ga+3].[OH3+] [[^68Ga]Ga-PSMA-11, reference compound] | 0.76 ± 0.18

* * *

- System: 22Rv1 tumor-bearing mice
- MEASUREMENT_NOTES: Biodistribution in 22Rv1 tumor-bearing mice
- EXPERIMENTAL_CONDITIONS: 10 min p.i., 0.74 MBq, n = 3
Below, each entry is listed alongside its reported Uptake Heart, Mean.
PARAMETER: Uptake Heart, Mean (ID%/g)

* O=C([O-])CN1CCN(CC(=O)[O-])CCN(CC(=O)NCCCCCC(=O)NC(Cc2cnc3ccccc3c2)C(=O)NCCCCC(NC(=O)NC(CCC(=O)O)C(=O)O)C(=O)O)CCN(CC(=O)O)CC1.[68Ga+3] (stereo not shown) [[^68Ga]Ga-PSMA-Q-2] | 1.76
* O=C([O-])CN1CCN(CC(=O)[O-])CCN(CC(=O)NCCCCC(=O)NC(Cc2cnc3ccccc3c2)C(=O)NCCCCC(NC(=O)NC(CCC(=O)O)C(=O)O)C(=O)O)CCN(CC(=O)O)CC1.[68Ga+3] (stereo not shown) [[^68Ga]Ga-PSMA-Q-1] | 2.21
* O=C([O-])CN1CCN(CC(=O)[O-])CCN(CC(=O)NCc2ccc(C(=O)NC(Cc3cnc4ccccc4c3)C(=O)NCCCCC(NC(=O)NC(CCC(=O)O)C(=O)O)C(=O)O)cc2)CCN(CC(=O)O)CC1.[68Ga+3] (stereo not shown) [[^68Ga]Ga-PSMA-Q-3] | 1.87
* O=C([O-])CN1CCN(CC(=O)[O-])CCN(CC(=O)NCC2CCC(C(=O)NC(Cc3ccc4ccccc4c3)C(=O)NCCCCC(NC(=O)NC(CCC(=O)O)C(=O)O)C(=O)O)CC2)CCN(CC(=O)O)CC1.[68Ga+3] (stereo not shown) [[^68Ga]Ga-PSMA-617, reference compound] | 2.11

* * *

- Tested on: 22Rv1 tumor-bearing mice
- MEASUREMENT_NOTES: Biodistribution in 22Rv1 tumor-bearing mice
- EXPERIMENTAL_CONDITIONS: 10 min p.i., 0.74 MBq, n = 3
- Method: The animal studies were approved by the institutional animal care and use committee of the Chinese PLA General Hospital. Healthy male ICR mice were injected with either a novel radiotracer (37 MBq in 150 μL) or saline (150 μL) for the radiotoxicity evaluation. […] […] (10 min, 30 min, 60 min), tumors and interested organs were harvested, weighed and measured by a γ-counter, the results were expressed as the percentage of injected dose per gram (ID%/g). […]
Below, each entry is listed alongside its reported Uptake Blood, Mean.
PARAMETER: Uptake Blood, Mean (ID%/g)

- O=C([O-])CN1CCN(CC(=O)[O-])CCN(CC(=O)NCC2CCC(C(=O)NC(Cc3ccc4ccccc4c3)C(=O)NCCCCC(NC(=O)NC(CCC(=O)O)C(=O)O)C(=O)O)CC2)CCN(CC(=O)O)CC1.[68Ga+3] (centres unmarked) [[^68Ga]Ga-PSMA-617, reference compound]: 2.21
- O=C([O-])CN1CCN(CC(=O)[O-])CCN(CC(=O)NCc2ccc(C(=O)NC(Cc3cnc4ccccc4c3)C(=O)NCCCCC(NC(=O)NC(CCC(=O)O)C(=O)O)C(=O)O)cc2)CCN(CC(=O)O)CC1.[68Ga+3] (centres unmarked) [[^68Ga]Ga-PSMA-Q-3]: 1.68
